Test system: Fusarium solani
procedureText: Growth inhibition of Fusarium solani at 200 ug/ml after 7 days
Type: functional
conditionContext: 168 h
Mark FALSE for inhibition at 200 µg/mL values under 10%, and TRUE for everything at or above.

entrysmiles=O=C1Nc2ccc(F)cc2/C1=N/NC(=S)Nc1ccccc1F cat=TRUE
entrysmiles=O=C1Nc2ccc(F)cc2/C1=N/NC(=S)Nc1cccc(F)c1 cat=TRUE
entrysmiles=O=C1Nc2ccc(F)cc2/C1=N/NC(=S)Nc1ccccc1 cat=FALSE
entrysmiles=O=C1Nc2ccc(F)cc2/C1=N/NC(=S)Nc1ccc(F)cc1F cat=TRUE
entrysmiles=O=C1Nc2ccc(F)cc2/C1=N/NC(=S)Nc1cc(F)cc(F)c1 cat=FALSE

Form field: inhibition at 200 µg/mL at least 10%? Entry: `O=C1Nc2ccc(F)cc2/C1=N/NC(=S)Nc1c(F)cccc1F`
FALSE

Form field: inhibition at 200 µg/mL at least 10%? Entry: `O=C1Nc2ccc(F)cc2/C1=N/NC(=S)Nc1ccccc1C(F)(F)F`
FALSE

Form field: inhibition at 200 µg/mL at least 10%? Entry: `O=C1Nc2ccc(F)cc2/C1=N/NC(=S)Nc1cccc(C(F)(F)F)c1`
TRUE

Form field: inhibition at 200 µg/mL at least 10%? Entry: `O=C1Nc2ccc(F)cc2/C1=N/NC(=S)Nc1ccc(OC(F)(F)F)cc1`
FALSE

Form field: inhibition at 200 µg/mL at least 10%? Entry: `O=C1Nc2ccc(F)cc2/C1=N/NC(=S)Nc1ccc(C(F)(F)F)cc1`
FALSE

----------
procedureText: Toxicity against Artemia salina (brine shrimp) assessed as mortality after 24 hr
Assay type: organism-based
conditionContext: in vivo, read-out: LD50
recordedMetric: LC50 at 24 h (µM)
Numbers only here, please. The scale is µM.

Examples from the recorded data:
entrysmiles=O=C1Nc2ccc(F)cc2/C1=N/NC(=S)Nc1cc(F)cc(F)c1 recordedmetric="LC50 at 24 h" unitofmeasure=µM reported=107
entrysmiles=O=C1Nc2ccc(F)cc2/C1=N/NC(=S)Nc1c(F)cccc1F recordedmetric="LC50 at 24 h" unitofmeasure=µM reported=115
entrysmiles=O=C1Nc2ccc(F)cc2/C1=N/NC(=S)Nc1ccccc1F recordedmetric="LC50 at 24 h" unitofmeasure=µM reported=279

For the compound `O=C1Nc2ccc(F)cc2/C1=N/NC(=S)Nc1ccc(C(F)(F)F)cc1` , give its reported LC50 at 24 h.
176

----------
Quick list: inhibition at 200 µg/mL per entry.
Tested on: Aspergillus flavus
procedureText: Growth inhibition of Aspergillus flavus at 200 ug/ml after 7 days
Assay type: functional
conditionContext: 168 h
Numbers only here, please. The scale is %.

entrysmiles=O=C1Nc2ccc(F)cc2/C1=N/NC(=S)Nc1ccc(C(F)(F)F)cc1 reported=20

Turning to the following compound.
For the compound `O=C1Nc2ccc(F)cc2/C1=N/NC(=S)Nc1ccc(F)cc1F` , give its reported inhibition at 200 µg/mL.
40

----------
System: Lemna aequinoctialis
procedureText: Phytotoxicity against Lemna aequinoctialis assessed as growth inhibition at 500 ug/ml after 7 days relative to control
Format: functional
conditionContext: 168 h, read-out: GI
recordedMetric: inhibition of growth at 500 µg/mL

entrysmiles=O=C1Nc2ccccc2/C1=N/NC(=S)Nc1ccccc1 assayedsystem="Lemna aequinoctialis" reported=40%

Provide the reported inhibition of growth at 500 µg/mL (system: Lemna aequinoctialis) for `O=C1Nc2ccc(F)cc2/C1=N/NC(=S)Nc1ccc(OC(F)(F)F)cc1`
35%

Provide the reported inhibition of growth at 500 µg/mL (system: Lemna aequinoctialis) for `O=C1Nc2ccc(F)cc2/C1=N/NC(=S)Nc1ccc(F)cc1`
35%

Provide the reported inhibition of growth at 500 µg/mL (system: Lemna aequinoctialis) for `O=C1Nc2ccc(F)cc2/C1=N/NC(=S)Nc1cccc(F)c1`
30%

Provide the reported inhibition of growth at 500 µg/mL (system: Lemna aequinoctialis) for `O=C1Nc2ccc(F)cc2/C1=N/NC(=S)Nc1c(F)cccc1F`
30%
